biological target: Integrin alpha-V/beta-5 (Homo sapiens, UniProt P06756+P18084); assay: Displacement of vitronectin from human integrin alphaV-beta5
Sequence (P06756 31-889 limits assumed): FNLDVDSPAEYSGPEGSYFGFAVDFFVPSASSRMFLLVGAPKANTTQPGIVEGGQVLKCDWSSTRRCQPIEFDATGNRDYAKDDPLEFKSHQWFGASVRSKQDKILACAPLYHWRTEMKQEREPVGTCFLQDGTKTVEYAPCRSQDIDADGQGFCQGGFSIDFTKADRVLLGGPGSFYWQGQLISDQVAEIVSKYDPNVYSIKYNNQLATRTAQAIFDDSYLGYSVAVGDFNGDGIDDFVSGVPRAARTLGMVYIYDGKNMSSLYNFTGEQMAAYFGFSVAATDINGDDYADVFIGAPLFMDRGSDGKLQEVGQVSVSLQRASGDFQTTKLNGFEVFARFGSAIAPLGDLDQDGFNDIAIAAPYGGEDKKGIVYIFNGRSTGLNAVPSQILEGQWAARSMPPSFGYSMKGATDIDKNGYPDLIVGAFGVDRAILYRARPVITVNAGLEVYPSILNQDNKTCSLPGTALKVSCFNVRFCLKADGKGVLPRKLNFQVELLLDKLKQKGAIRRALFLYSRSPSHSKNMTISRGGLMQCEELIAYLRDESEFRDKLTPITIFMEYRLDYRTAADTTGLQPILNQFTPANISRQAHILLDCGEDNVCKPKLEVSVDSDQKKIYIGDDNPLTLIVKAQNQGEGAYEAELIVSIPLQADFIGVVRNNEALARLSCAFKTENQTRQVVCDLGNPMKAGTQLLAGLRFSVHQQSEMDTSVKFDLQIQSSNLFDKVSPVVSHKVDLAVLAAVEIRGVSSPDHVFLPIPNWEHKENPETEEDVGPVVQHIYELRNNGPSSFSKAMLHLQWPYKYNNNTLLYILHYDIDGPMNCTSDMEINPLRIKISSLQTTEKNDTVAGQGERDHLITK
Sequence (P06756 891-1048 limits assumed): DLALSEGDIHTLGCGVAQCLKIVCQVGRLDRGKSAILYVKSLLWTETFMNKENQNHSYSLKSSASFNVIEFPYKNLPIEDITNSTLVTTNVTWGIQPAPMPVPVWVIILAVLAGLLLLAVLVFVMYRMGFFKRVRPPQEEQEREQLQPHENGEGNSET
Sequence (P18084 24-799 limits assumed): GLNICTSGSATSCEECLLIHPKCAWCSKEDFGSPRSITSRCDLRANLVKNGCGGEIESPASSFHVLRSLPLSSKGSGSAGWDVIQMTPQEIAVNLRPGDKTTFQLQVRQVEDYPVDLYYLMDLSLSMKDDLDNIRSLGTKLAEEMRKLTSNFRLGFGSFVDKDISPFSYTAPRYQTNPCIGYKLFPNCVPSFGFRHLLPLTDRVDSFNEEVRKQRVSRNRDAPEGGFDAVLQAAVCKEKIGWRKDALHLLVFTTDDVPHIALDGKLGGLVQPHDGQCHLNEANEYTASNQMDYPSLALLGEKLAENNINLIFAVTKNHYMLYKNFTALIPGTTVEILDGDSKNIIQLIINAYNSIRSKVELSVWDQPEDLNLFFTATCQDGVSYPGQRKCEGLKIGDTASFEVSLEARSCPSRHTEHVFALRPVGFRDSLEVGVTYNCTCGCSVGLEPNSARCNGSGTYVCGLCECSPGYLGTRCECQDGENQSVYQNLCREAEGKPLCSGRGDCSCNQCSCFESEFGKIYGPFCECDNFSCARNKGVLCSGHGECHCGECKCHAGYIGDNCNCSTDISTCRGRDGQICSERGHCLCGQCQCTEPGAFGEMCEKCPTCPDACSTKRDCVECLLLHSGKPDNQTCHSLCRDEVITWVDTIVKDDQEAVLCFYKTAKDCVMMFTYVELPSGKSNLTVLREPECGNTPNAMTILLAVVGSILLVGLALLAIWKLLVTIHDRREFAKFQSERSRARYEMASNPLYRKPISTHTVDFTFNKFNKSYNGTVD
In this section we review reported log10 of IC50 values for a set of compounds.
Each number you see is log10 of IC50, and the unit inside the log is nM.

Take a look at these entries with their results.
{"columns": ["compound", "readoutType", "measured"],
 "data": [
  ["O=C(O)CC1CC(CNC(=O)CCCCNc2ccccn2)=CCc2ccccc21 (stereo not given)", "log10 of IC50", -0.05],
  ["O=C(O)CC1CC(CNC(=O)CCCc2ccc3c(n2)NCCC3)=CCc2ccccc21 (stereo not given)", "log10 of IC50", -0.52],
  ["O=C(O)CC1CC(CNC(=O)CCCNc2nc3ccccc3[nH]2)=CCc2ccccc21 (stereo not given)", "log10 of IC50", -0.30],
  ["O=C(O)CC1CC(CNC(=O)CCCNc2ccccn2)=CCc2ccccc21 (stereo not given)", "log10 of IC50", -0.10]
]}

Switching to the query record.
Integrin alpha-V/beta-5 (Homo sapiens, UniProt P06756+P18084) / log10 of IC50 / O=C(O)CC1CC(CNC(=O)CCCNC2=NCCN2)=CCc2ccccc21 (stereo not given) : value? -0.70
